B1: VAMP4 (parent)
chain: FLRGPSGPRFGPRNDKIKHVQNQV

variants of: B1; experiment: protein stability index of a GFP-peptide fusion (GPS, HEK-293T) (PSI 1-6); higher = more stable; details: c terminus: a fixed tail appended;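 note: lentivirally expressed fusions sorted by FACS into six bins by GFP to DsRed ratio, PSI derived from sequencing read proportions per bin multiplied by bin number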
Please go through the items and note down their protein stability index.
One number for each entry.

Some entries whose results are on file:
1. FLRGPSGPRFGPRNDKIKHVQNQQ: 2.76
2. FLRGPKGPRFGPRNDKIKHVQNQV: 2.65

Quick batch: protein stability index for everything below.
1. FLRGPSGPRFAPRNDKIKHVQNQV
2. FLRGPSGPRFIPRNDKIKHVQNQV
3. FLRGPSGPRFGPRNDKIKHVTNQV
4. FLRKPSGPRFGPRNDKIKHVQNQV
5. FLVGPSGPRFGPRNDKIKHVQNQV
6. FLRGPSGPRFKPRNDKIKHVQNQV
7. FLRGPSGPRFGPRNDKIKHTQNQV
8. FLRGPSGPRFGPSNDKIKHVQNQV

A)
[2.75, 2.12, 2.29, 2.82, 2.08, 2.57, 2.87, 3.11]

Quick batch: protein stability index for everything below.
1. FLRGPSGPRFGPHNDKIKHVQNQV
2. FLHGPSGPRFGPRNDKIKHVQNQV
3. FLRGPSGPRFGPRNDKIKHVQNLV
4. FLRGPSGPRNGPRNDKIKHVQNQV

A)
[2.17, 3.17, 2.81, 2.95]

Quick batch: protein stability index for everything below.
1. FLRGESGPRFGPRNDKIKHVQNQV
2. FLRGPSTPRFGPRNDKIKHVQNQV
3. FLRGPSGPRFGPRNDKIKHVVNQV
4. FLRGPSGPRFGMRNDKIKHVQNQV

A)
3.15
2.66
2.83
2.61

Quick batch: protein stability index for everything below.
1. FLRGPSIPRFGPRNDKIKHVQNQV
2. FLRGPSGRRFGPRNDKIKHVQNQV
3. FLRGPSGPRFGPRNDKIKHVQNQK
4. FLRGPSGPRFGARNDKIKHVQNQV
5. FLRCPSGPRFGPRNDKIKHVQNQV
6. FLRGPSGPRFGPYNDKIKHVQNQV
7. FLRGPSGPRFGPRNDKIKHVCNQV

A)
1. 3.02
2. 2.35
3. 3.46
4. 2.54
5. 2.24
6. 2.31
7. 1.68

Just for reference, the supplement of paper PMC10567573 is where these values come from.
